- TESTED SYSTEM: T1, CD19抗原 (B lymphocyte antigen CD19) (human, UniProt P15391 20-291, limits assumed, biotin label in Examples 2-4 (site not stated))
- T1 construct: also called CD19-his; CD19-his-biotin; not shown: his tag
- T1 sequence (looked up): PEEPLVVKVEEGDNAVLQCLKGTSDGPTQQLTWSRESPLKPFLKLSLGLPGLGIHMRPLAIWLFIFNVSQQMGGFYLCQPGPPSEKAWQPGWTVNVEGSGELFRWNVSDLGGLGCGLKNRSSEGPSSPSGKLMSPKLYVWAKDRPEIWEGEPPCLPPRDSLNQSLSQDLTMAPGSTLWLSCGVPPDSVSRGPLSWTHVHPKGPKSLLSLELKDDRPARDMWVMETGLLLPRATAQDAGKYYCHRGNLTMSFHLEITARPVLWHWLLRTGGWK
- EXPERIMENTAL PROTOCOL: ELISA of periplasmic extract dilutions on a CD19-coated plate, OD450
PROPERTY: binding result

binder="Combo-5 (scFv in periplasmic extract) (scFv, Soluble scFv in E. coli periplasmic extract (PPE), not purified) scFv: EVKLQESGPGLVAPSQSLSVTCTVSGWSLEDYGVSWIRQSPRKGLEWLGGIIGSQTTYYLAGLKSRLTIIKDNSKSQVFLKMNSLQTDDTAIYYCAKHRYYGGSFDMDYWGQGTSVTVSSGGGGSGGGGSGGGGSDIQMTQTTSSLSASLGDRVTISCRASQDISKYLNWYQQKPDGTVKLLIYHTSRLHSGVPSRFSGSGSGTDYSLTISNLEQEDIATYFCQQGNTLPYTFGGGTKLEIT" property="binding result" test_result=binds
binder="Combo-10 (scFv in periplasmic extract) (scFv, Soluble scFv in E. coli periplasmic extract (PPE), not purified) scFv: EVKLQESGPGLVAPSQSLSVTCTVSGVSLPDYGVSWIRQPPRKGLEWLGVIWGSETTYYNSALKSRLTIIKDNSKSQVFLKMNSLQTDDTAIYYCAKHYYYGGSYAMDYWGQGTSVTVSSGGGGSGGGGSGGGGSDIQMTQTTSSLSASLGDRVTISCRASQPIRRYLNWYQQKPDGTVKLLIYHTSRLHSGVPSRFSGSGSGTDYSLTISNLEQEDIATYFCQQGKKAPLTFGGGTKLEIT" property="binding result" test_result=binds
binder="Combo-8 (scFv in periplasmic extract) (scFv, Soluble scFv in E. coli periplasmic extract (PPE), not purified) scFv: EVKLQESGPGLVAPSQSLSVTCTVSGWSLEDYGVSWIRQSPRKGLEWLGVIWGSETTYYNSALKSRLTIIKDNSKSQVFLKMNSLQTDDTAIYYCAKHWYYGGSFAMDYWGQGTSVTVSSGGGGSGGGGSGGGGSDIQMTQTTSSLSASLGDRVTISCRASQDISKYLNWYQQKPDGTVKLLIYHTSRLHSGVPSRFSGSGSGTDYSLTISNLEQEDIATYFCQQGNTLPYTFGGGTKLEIT" property="binding result" test_result=binds
